Attribution: patent US20250276090A1

- System: AAVS1
- ASSAY: GFP insertion at AAVS1 in T cells with SpyCas9 RNP and gapped AAV templates, flow cytometry (Example 6)
- Type: cell-based, human
- CONDITION NOTES: Donor 2; Template B; day 7 post-editing
Strand notation (5' to 3'): a small letter for the sugar, then the base; units joined by * are phosphorothioate-linked, units joined directly phosphodiester-linked; [ ] holds rarer units or linkages, { } end groups; capitals alone tell only the bases. m = 2'-O-methyl; r = 2'-OH (RNA)
MEASURED QUANTITY: Mean percentage of T cells positive for GFP expression (%)
Report the value in % with no unit label.

INSERT INTO measurements (molecule, numeric_result) VALUES
  ('G013565: AAVS1 SpyCas9 guide RNA, guide sequence SEQ ID NO: 262, chr19:55115850-55115870 (nucleic acid) guide: mG*mG*mA*rUrCrCrUrGrUrGrUrCrCrCrCrGrArGrCrUrGrUrUrUrUrArGrAmGmCmUmAmGmAmAmAmUmAmGmCrArArGrUrUrArArArArUrArArGrGrCrUrArGrUrCrCrGrUrUrArUrCrAmAmCmUmUmGmAmAmAmAmAmGmUmGmGmCmAmCmCmGmAmGmUmCmGmGmUmGmCmU*mU*mU*mU', 65.00);

Suppose we examine the molecule G013563: AAVS1 SpyCas9 guide RNA, guide sequence SEQ ID NO: 260, chr19:55115835-55115855 (nucleic acid) guide: mA*mU*mA*rUrArArGrGrUrGrGrUrCrCrCrArGrCrUrCrGrUrUrUrUrArGrAmGmCmUmAmGmAmAmAmUmAmGmCrArArGrUrUrArArArArUrArArGrGrCrUrArGrUrCrCrGrUrUrArUrCrAmAmCmUmUmGmAmAmAmAmAmGmUmGmGmCmAmCmCmGmAmGmUmCmGmGmUmGmCmU*mU*mU*mU ; what Mean percentage of T cells positive for GFP expression value has been reported?
71.35

Record: G013559: AAVS1 SpyCas9 guide RNA, guide sequence SEQ ID NO: 258, chr19:55115823-55115843 (nucleic acid) guide: mC*mC*mG*rGrCrCrCrUrGrGrGrArArUrArUrArArGrGrGrUrUrUrUrArGrAmGmCmUmAmGmAmAmAmUmAmGmCrArArGrUrUrArArArArUrArArGrGrCrUrArGrUrCrCrGrUrUrArUrCrAmAmCmUmUmGmAmAmAmAmAmGmUmGmGmCmAmCmCmGmAmGmUmCmGmGmUmGmCmU*mU*mU*mU
64.05

Note, next up: G000562: AAVS1 SpyCas9 guide RNA, guide sequence SEQ ID NO: 251, chr19:55115695-55115715 (nucleic acid) guide: mC*mC*mA*rArUrArUrCrArGrGrArGrArCrUrArGrGrArGrUrUrUrUrArGrAmGmCmUmAmGmAmAmAmUmAmGmCrArArGrUrUrArArArArUrArArGrGrCrUrArGrUrCrCrGrUrUrArUrCrAmAmCmUmUmGmAmAmAmAmAmGmUmGmGmCmAmCmCmGmAmGmUmCmGmGmUmGmCmU*mU*mU*mU
32.75

And the next one, G013562: AAVS1 SpyCas9 guide RNA, guide sequence SEQ ID NO: 259, chr19:55115834-55115854 (nucleic acid) guide: mA*mA*mU*rArUrArArGrGrUrGrGrUrCrCrCrArGrCrUrGrUrUrUrUrArGrAmGmCmUmAmGmAmAmAmUmAmGmCrArArGrUrUrArArArArUrArArGrGrCrUrArGrUrCrCrGrUrUrArUrCrAmAmCmUmUmGmAmAmAmAmAmGmUmGmGmCmAmCmCmGmAmGmUmCmGmGmUmGmCmU*mU*mU*mU ?
65.40

Also G013564: AAVS1 SpyCas9 guide RNA, guide sequence SEQ ID NO: 261, chr19:55115836-55115856 (nucleic acid) guide: mU*mA*mU*rArArGrGrUrGrGrUrCrCrCrArGrCrUrCrGrGrUrUrUrUrArGrAmGmCmUmAmGmAmAmAmUmAmGmCrArArGrUrUrArArArArUrArArGrGrCrUrArGrUrCrCrGrUrUrArUrCrAmAmCmUmUmGmAmAmAmAmAmGmUmGmGmCmAmCmCmGmAmGmUmCmGmGmUmGmCmU*mU*mU*mU ?
63.45
